# systemTested: Virion infectivity factor (Human immunodeficiency virus type 1 group M subtype B (isolate BH10)) + Virion infectivity factor (Human immunodeficiency virus type 1 group M subtype B (isolate BRU/LAI)) + Virion infectivity factor (Human immunodeficiency virus type 1 group M subtype B (isolate PCV12)) + Virion infectivity factor (Human immunodeficiency virus type 1 group M subtype B (isolate HXB2)) + DNA dC->dU-editing enzyme APOBEC-3G (Homo sapiens) (UniProt P69720+P69721+P69722+P69723+Q9HC16)
# measurementDescription: inhibitors of Vif binding to APOBEC3G peptide, primary screen, biochemical, TR-FRET, GST-Vif 1-94, biotin-A3G peptide, dose response retest (AID 1117319);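 further: Vif residues 1-94 fused to GST binding biotinylated APOBEC3G peptide 110-148; 0% = full assay without inhibitor and 100% = GST in place of GST-Vif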
# conditionDescription: hits give high values
Screen size: about 260,000 compounds; about 1,500 (0.58%) were called active. Roughly 5% stayed inconclusive and do not appear here. The list is a sample of the results. Entries with a potency or affinity are not part of this list.
measuredAttribute: inhibition (%)
Respond numerically; units are % and should not be typed.

For this compound ( `COc1ccc(CCNC(=O)Cn2cnc3c(cnn3C(C)(C)C)c2=O)cc1OC` ), measured inhibition is -3.55

Notebook: `CC(=O)c1ccc(NC(=S)NC(=O)/C=C/c2ccco2)cc1` , inhibition read as 9.46

Entry under test: `O=C(NC(=S)N1CCN(c2ccc([N+](=O)[O-])cc2)CC1)c1ccccc1Cl` . Its inhibition was 0.79

inhibition reported for this compound `Cc1cc(NC(=O)/C=C/c2ccco2)ccc1NC(=O)c1ccccc1` : 11.7

get_value(item= `O=C(/C=C/c1ccco1)Nc1ccccc1C(=O)Nc1cccc(C(=O)O)c1` , readout=inhibition) returns 30.8

inhibition in this record for `Cc1ccc(O)c(NC(=S)NC(=O)/C=C/c2ccco2)c1` : -4.52

Note to self: inhibition recorded for Fc1ccccc1/C=C1\CCCC2=C1Nc1nnnn1C2c1ccccc1F (stereo not given) was 15.4

Record summary for `O=C(O)c1ccc(S(=O)(=O)c2ccccc2C(=O)O)c([N+](=O)[O-])c1` : reported inhibition = -4.06

Item: `CCCn1c2ccc(C)cc2c2nnc(SCCN3CCOCC3)nc21` | inhibition: -4.1

`O=C(O)c1ccc(C(=O)c2cc([N+](=O)[O-])cc([N+](=O)[O-])c2)cc1` has a reported inhibition of -9.99

====

Please respond with reported inhibition for every item in the list.
# systemTested: Virion infectivity factor (Human immunodeficiency virus type 1 group M subtype B (isolate BH10)) + Virion infectivity factor (Human immunodeficiency virus type 1 group M subtype B (isolate BRU/LAI)) + Virion infectivity factor (Human immunodeficiency virus type 1 group M subtype B (isolate PCV12)) + Virion infectivity factor (Human immunodeficiency virus type 1 group M subtype B (isolate HXB2)) + DNA dC->dU-editing enzyme APOBEC-3G (Homo sapiens) (UniProt P69720+P69721+P69722+P69723+Q9HC16)
# measurementDescription: inhibitors of Vif binding to APOBEC3G peptide, primary screen, biochemical, TR-FRET, GST-Vif 1-94, biotin-A3G peptide, dose response retest (AID 1117319);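 further: Vif residues 1-94 fused to GST binding biotinylated APOBEC3G peptide 110-148; 0% = full assay without inhibitor and 100% = GST in place of GST-Vif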
# conditionDescription: hits give high values
Out of some 260,000 compounds screened, about 1,500 (0.58%) were called active. About 5% were inconclusive and are not listed. Not all results are given here. Results with a measured potency or affinity are listed apart.
Please give a number only; it is taken to be in %.

Summary for this compound, O=C1CN(C(=O)c2c(F)cccc2F)C(c2ccccc2)c2cc(Br)ccc2N1 (configuration not stated) : inhibition is -0.06

In plain terms, `CCOC(=O)c1ccc(CC(=O)c2oc3cc(O)ccc3c2C)o1` has a documented inhibition of 29.3

Quick note, inhibition for `CCOC(=O)c1c(/N=C/c2cccc([N+](=O)[O-])c2O)sc2c1CCC2` landed at 27

So for `COc1ccc(CNC(=O)c2cc(=O)c3ccccc3o2)cc1` , the logged inhibition turned out to be 4.03

// `COC(=O)c1ccc(CC(=O)c2ccc(O)cc2O)o1` : inhibition value = 21.4

For reference, reported inhibition for `COc1ccc(NC(=O)COc2ccccc2Cl)cc1S(=O)(=O)N1CCCCC1` stands at 11.7

Reported inhibition for `CCN(CC)C(=O)c1ccc(C)c(Br)c1` was -4.6

Reported inhibition for `c1ccc(N2CCN(c3ncccn3)CC2)cc1` was 2.21

// inhibition lookup, compound = `O=c1[nH]c2ccccc2n2c(C(F)(F)F)nnc12` , result: -5.29

response.value for `c1ccc(N2CCN(c3cnccn3)CC2)nc1` (field: inhibition) = -2.48

inhibition reported for this compound `O=c1[nH]c2ccccc2n2c(-c3ccncc3)nnc12` : 4.55

Record summary for CCOC(=O)c1ccc2nc(C)c3c(c2c1)OC(C)C3 (configuration not stated) : reported inhibition = -3.24
